tested on: JAK1/3; assay: Healthy normal human whole blood assay: T-cell, IL2 stimulation, pSTAT5 Y694 readout; assay type: cell-based
endpointName: IC50 (µM)
Give the value in µM but do not write µM after it.

Incoming: Entry CCS(=O)(=O)N1CCN(c2ccc(Nc3ncc(C(N)=O)c(NC4CC4)n3)cc2)CC1 [cerdulatinib] : reported IC50 = ?
Outgoing: 0.2

----------
molecular target: RSK4 (Homo sapiens)
Sequence (Q9UK32 whole entry): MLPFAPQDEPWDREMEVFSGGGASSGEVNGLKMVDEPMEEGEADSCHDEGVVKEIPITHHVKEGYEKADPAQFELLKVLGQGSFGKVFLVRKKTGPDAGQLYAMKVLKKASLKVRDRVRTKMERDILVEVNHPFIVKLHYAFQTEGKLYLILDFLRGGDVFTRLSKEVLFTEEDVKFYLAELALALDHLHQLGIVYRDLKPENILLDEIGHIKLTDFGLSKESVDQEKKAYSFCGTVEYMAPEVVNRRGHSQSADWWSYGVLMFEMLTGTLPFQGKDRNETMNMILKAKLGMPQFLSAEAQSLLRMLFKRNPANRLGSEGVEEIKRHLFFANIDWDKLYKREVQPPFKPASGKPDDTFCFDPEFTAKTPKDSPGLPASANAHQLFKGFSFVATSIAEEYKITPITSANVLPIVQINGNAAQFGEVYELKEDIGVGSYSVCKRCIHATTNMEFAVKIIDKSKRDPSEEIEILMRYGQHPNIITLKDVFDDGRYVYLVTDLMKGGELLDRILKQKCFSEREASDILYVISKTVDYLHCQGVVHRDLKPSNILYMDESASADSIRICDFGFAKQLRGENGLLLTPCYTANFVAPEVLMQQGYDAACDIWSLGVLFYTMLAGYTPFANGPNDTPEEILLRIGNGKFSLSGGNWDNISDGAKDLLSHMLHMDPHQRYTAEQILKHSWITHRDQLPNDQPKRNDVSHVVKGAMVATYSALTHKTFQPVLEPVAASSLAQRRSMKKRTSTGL
endpointName: IC50 (nM)
Give the value in nM but do not write nM after it.

Incoming: Entry CCS(=O)(=O)N1CCN(c2ccc(Nc3ncc(C(N)=O)c(NC4CC4)n3)cc2)CC1 [cerdulatinib] : reported IC50 = ?
Outgoing: 28
